tested on: WHIM30 (cells of a triple-negative basal-like breast cancer xenograft); assay: cell viability (% of vehicle); higher = less cytotoxic; details: 1 µM; 72 h;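 note: cells dissociated from PDX tumors propagated in female NSG mouse mammary fat pads, vehicle control 0.1% DMSO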
Binary label based on cell viability with cut-off 90: below gives true (1), not below gives false (0).

compound=[O-]n1ccccc1=S.[O-]n1ccccc1=S.[Zn+2] cat="true (1)"
compound="COc1cc2nccc(Oc3ccc(NC(=O)NC4CC4)c(Cl)c3)c2cc1C(N)=O [Lenvatinib (E7080)]" cat="false (0)"
compound="COCCOC(=O)C1=C(C)NC(C)=C(C(=O)OCC=Cc2ccccc2)C1c1cccc([N+](=O)[O-])c1 (stereo not drawn)" cat="false (0)"
compound="COc1ccccc1OCCNCC(O)COc1cccc2[nH]c3ccccc3c12 (stereo not drawn)" cat="false (0)"
compound="Cc1cccc(CN2CCN(C(c3ccccc3)c3ccc(Cl)cc3)CC2)c1.Cl.Cl (stereo not drawn) [Meclizine 2HCl]" cat="false (0)"
compound=CO[C@H]1/C=C/O[C@@]2(C)Oc3c(C)c(O)c4c(O)c(c(/C=N/N5CCN(C6CCCC6)CC5)c(O)c4c3C2=O)NC(=O)/C(C)=C\C=C\[C@H](C)[C@H](O)[C@@H](C)[C@@H](O)[C@@H](C)[C@H](OC(C)=O)[C@@H]1C cat="false (0)"
compound=CO[C@H]1C[C@@H]2CC[C@@H](C)[C@@](O)(O2)C(=O)C(=O)N2CCCC[C@H]2C(=O)O[C@H]([C@H](C)C[C@@H]2CC[C@@H](OC(=O)C(C)(CO)CO)[C@H](OC)C2)CC(=O)[C@H](C)/C=C(\C)[C@@H](O)[C@@H](OC)C(=O)[C@H](C)C[C@H](C)/C=C/C=C/C=C/1C cat="true (1)"
compound="CC(NCCCc1cccc(C(F)(F)F)c1)c1cccc2ccccc12.Cl (stereo not drawn) [Cinacalcet HCl]" cat="true (1)"
